System: HOP-92 NSCLC
Test: NCI-60 one-dose screen, 48 h
Settings: 10 µM unless noted
This is part of a sample that, as a whole, favours compounds with a hit. Of some 83,000 tested, about 20% had one in any assay. Active and inactive are the calls of the source. How the source made its calls: active means growth percent below 10; inactive means the rest.
Outcome codes: active, inactive

- COMPOUND: "Cc1cc(N/N=C/c2nc(-c3ccc(Br)cc3)oc2C)c2cc(Br)ccc2n1"
  LABEL: "inactive"
- COMPOUND: "COc1ccc(NC(=O)CSc2nc(-c3ccc(OC)c(OC)c3)cc(-c3cc(OC)c(OC)c(OC)c3)n2)cc1"
  LABEL: "inactive"
- COMPOUND: "Cc1ccc(S(=O)(=O)c2nc(-c3ccccc3)oc2S(C)(=O)=O)cc1"
  LABEL: "active"
- COMPOUND: "COc1ccc(-c2cn(-c3cccc(C(=O)/C=C/c4cc(OC)c(OC)c(OC)c4)c3)c(=O)[nH]2)cc1OC"
  LABEL: "inactive"
- COMPOUND: "O=C(NS(=O)(=O)c1ccccc1)n1cc(-c2ccncc2)c(-c2ccc(Cl)c(O)c2)n1"
  LABEL: "inactive"
- COMPOUND: "Cc1c(C(N)=O)sc2c1c(=O)n(Cc1ccccc1)c1nnc(Nc3ccccc3)n21"
  LABEL: "inactive"
- COMPOUND: "C=CCn1c2ccccc2c2c3c(c4c5ccccc5n(CC=C)c4c21)C(=O)N(O)C3=O"
  LABEL: "inactive"
- COMPOUND: "COc1cc(-c2nn(C(=O)NS(=O)(=O)c3ccccc3)cc2-c2ccncc2)ccc1Cl"
  LABEL: "inactive"
- COMPOUND: "C=C(C)[C@@H]1C[C@H](O)Cc2cc(F)ccc2N1"
  LABEL: "inactive"
- COMPOUND: "COc1cc(-c2nc(-c3nc4ccc(Cl)cc4[nH]3)cc3c2[nH]c2ccccc23)cc(OC)c1OC"
  LABEL: "inactive"
- COMPOUND: "COc1cc(Nc2nc(N[C@H]3CCCC[C@@H]3N)nc3cc[nH]c(=O)c23)cc(OC)c1"
  LABEL: "active"
- COMPOUND: "O=S1(=O)CCC(N(/N=C/c2ccco2)c2ccccc2)C1 (stereo unspecified)"
  LABEL: "inactive"
- COMPOUND: "CC12CCC3C4(C)COC(c5ccco5)OC4CCC3(C)C1CC(C1=CCOC1=O)O2 (stereo unspecified)"
  LABEL: "inactive"
- COMPOUND: "COc1cc(C2NN=C3c4ccccc4CCC32)cc(OC)c1OC (stereo unspecified)"
  LABEL: "inactive"
- COMPOUND: "COC(=O)c1cc(=O)nc(N/N=C/c2ccco2)s1"
  LABEL: "inactive"
- COMPOUND: "COc1ccc(C2C=C(c3ccc(N)cc3)N=C3SC=CN32)cc1OC (stereo unspecified)"
  LABEL: "inactive"
- COMPOUND: "COc1ccc(-c2cnoc2-c2ccc(OC)cc2O)cc1"
  LABEL: "inactive"
- COMPOUND: "COc1ccc(-c2nc(/C=C3/C(=O)Nc4ccc(F)cc43)c3ccccn23)cc1"
  LABEL: "inactive"
- COMPOUND: "COc1ccc(C(=O)N2NC(=O)/C(=C/c3cn(-c4ccccc4)nc3-c3ccccc3)N=C2c2ccccc2)cc1"
  LABEL: "inactive"
- COMPOUND: "C=C1C(=O)O[C@@H]2[C@@H]3O[C@@](C)(CC/C=C(\\C)CCC[C@@H]2C)[C@H](O)C[C@@H]13"
  LABEL: "active"
- COMPOUND: "COc1cccc(CC(C)=C(c2ccc(OCCN3CCCCC3)cc2)c2ccc(OCCN3CCCCC3)cc2)c1"
  LABEL: "active"
- COMPOUND: "COc1cc(-c2nc(N=Nc3c(O)[nH]c4ccc(Br)cc34)[nH]c(=O)c2C#N)cc(OC)c1OC"
  LABEL: "inactive"
- COMPOUND: "Nc1cccc(-c2nc3sccn3c2-c2ccnc(NCCCNS(=O)(=O)c3cccc4ccccc34)n2)c1"
  LABEL: "inactive"
- COMPOUND: "O=c1c2sc3ncccc3c2nnn1-c1ccccc1"
  LABEL: "inactive"
- COMPOUND: "CCN(CC)CCC(CNc1ccnc2cc(Cl)ccc12)c1ccccc1 (stereo unspecified)"
  LABEL: "inactive"
- COMPOUND: "Fc1ccc(Nc2nc(NCCNc3ccnc4cc(Cl)ccc34)nc(N3CCOCC3)n2)cc1"
  LABEL: "active"
- COMPOUND: "COc1cc(C(=O)/C=C/c2ccc3nc(-c4cc(F)cc(F)c4)sc3c2)cc(OC)c1OC"
  LABEL: "inactive"
- COMPOUND: "c1ccc(-c2nc(N3CCNCC3)c3nc(-c4ccccc4)oc3n2)cc1"
  LABEL: "inactive"
- COMPOUND: "CN(C)c1nc2c(N)ncnc2n1C1OC(CO)C(O)C1O (stereo unspecified)"
  LABEL: "inactive"
- COMPOUND: "Cc1nn(-c2ccc(Cl)cc2)c2ncnc(N/N=C/c3cccc([N+](=O)[O-])c3)c12"
  LABEL: "inactive"
- COMPOUND: "Brc1cccc(-c2cc(-c3ccc4c(c3)OCCCO4)[nH]n2)c1"
  LABEL: "inactive"
- COMPOUND: "CC(C)CSc1nc(NN)c(C#N)c(-c2ccc(F)cc2)n1"
  LABEL: "inactive"
- COMPOUND: "COc1ccncc1S(=O)(=O)NC(=O)Nc1ccc(Cl)c(Cl)c1"
  LABEL: "inactive"
- COMPOUND: "O=S(=O)(NCCCNc1nccc(-n2ccc3cccnc32)n1)c1ccc(Br)cc1"
  LABEL: "inactive"
- COMPOUND: "N=c1ccc2nc3ccc(N)cc3sc-2c1"
  LABEL: "inactive"
- COMPOUND: "O=C1c2ccccc2-c2ccccc2C1(Cl)Cl"
  LABEL: "active"
- COMPOUND: "CCOC(=O)C1CCNC(=O)C1=O (stereo unspecified)"
  LABEL: "inactive"
- COMPOUND: "COc1ccc(-c2c(-c3cc(OC)c4c(c3)OCO4)noc2N)cc1"
  LABEL: "inactive"
- COMPOUND: "COc1cccc(/C=C2\\Oc3cc(OCCCN4CCCC4)ccc3C2=O)c1OC"
  LABEL: "inactive"
- COMPOUND: "Cc1ccc(S(=O)(=O)NCCNc2nccc(-c3c(-c4ccc(O)cc4)nc4sccn34)n2)cc1"
  LABEL: "inactive"
- COMPOUND: "S=c1[nH]nc(-c2cc3ccc2CCc2ccc(cc2)CC3)n1C1CC1"
  LABEL: "inactive"
